- Tested on: FGFR3-TACC3_v1 (N-FLAG) fusion polypeptide
- MEASUREMENT_NOTES: In vitro kinase activity of FGFR3-TACC3_v1 (N-FLAG) fusion polypeptide (HTRF KinEASE-TK, peptide substrate)
- Type: biochemical, human
- CONDITION_SET: final concentration 100 nM; ATP 100 μM
Entries annotated with measured Inhibition against peptide substrate FGFR3-TACC3 v1
QUANTITY_NAME: Inhibition against peptide substrate FGFR3-TACC3 v1 (%)

INSERT INTO measurements (smiles_input, observed_measurement) VALUES
  ('CCN1CCN(c2ccc(Nc3cc(N(C)C(=O)Nc4c(Cl)c(OC)cc(OC)c4Cl)ncn3)cc2)CC1', 58),
  ('COc1cc(CCc2cc(NC(=O)c3ccc(N4C[C@@H](C)N[C@@H](C)C4)cc3)[nH]n2)cc(OC)c1', 69),
  ('COc1cc(OC)c(F)c(COc2cnc(Nc3cc(CN4CCN(C)CC4)n(C)n3)nc2)c1F', 86),
  ('COc1cc(OC)c(F)c(COc2cnc(Nc3cnn(C[C@@H](O)CO)c3)nc2)c1F', 95),
  ('COc1cc(OC)c(F)c(COc2cnc(Nc3ccc(N4CCN(C)CC4)cc3)nc2)c1F', 94);

###

- Test system: FGFR3-TACC3_v2 (N-FLAG) fusion polypeptide
- MEASUREMENT_NOTES: In vitro kinase activity of FGFR3-TACC3_v2 (N-FLAG) fusion polypeptide (HTRF KinEASE-TK, peptide substrate)
- Type: biochemical, human
- CONDITION_SET: final concentration 100 nM; ATP 100 μM
QUANTITY_NAME: Inhibition against peptide substrate FGFR3-TACC3 v2 (%)

INSERT INTO assay_data (compound, experimental_system, observed_measurement) VALUES
  ('COc1cc(CCc2cc(NC(=O)c3ccc(N4C[C@@H](C)N[C@@H](C)C4)cc3)[nH]n2)cc(OC)c1 [AZD4547]', 'FGFR3-TACC3_v2 (N-FLAG) fusion polypeptide', 77),
  ('COc1cc(OC)c(F)c(COc2cnc(Nc3cnn(C[C@@H](O)CO)c3)nc2)c1F [Compound C]', 'FGFR3-TACC3_v2 (N-FLAG) fusion polypeptide', 95),
  ('CCN1CCN(c2ccc(Nc3cc(N(C)C(=O)Nc4c(Cl)c(OC)cc(OC)c4Cl)ncn3)cc2)CC1 [BGJ398]', 'FGFR3-TACC3_v2 (N-FLAG) fusion polypeptide', 79),
  ('COc1cc(OC)c(F)c(COc2cnc(Nc3ccc(N4CCN(C)CC4)cc3)nc2)c1F [Compound D]', 'FGFR3-TACC3_v2 (N-FLAG) fusion polypeptide', 95),
  ('COc1cc(OC)c(F)c(COc2cnc(Nc3cc(CN4CCN(C)CC4)n(C)n3)nc2)c1F [Compound E]', 'FGFR3-TACC3_v2 (N-FLAG) fusion polypeptide', 78);

###

- Test system: FGFR3-TACC3_v3 expression/NIH3T3 cells
- MEASUREMENT_NOTES: Anchorage-independent cell proliferation, spheroid plate, CellTiter-Glo
- CONDITION_SET: Mus musculus, NIH3T3, 96 h, read-out: growth inhibition rate (%), v3
Entries annotated with measured inhibition at 0.1 µM
QUANTITY_NAME: inhibition at 0.1 µM (%)

INSERT INTO results (smiles_input, experimental_system, unit_descriptor, observed_measurement) VALUES
  ('COc1cc(CCc2cc(NC(=O)c3ccc(N4C[C@@H](C)N[C@@H](C)C4)cc3)[nH]n2)cc(OC)c1', 'FGFR3-TACC3_v3 expression/NIH3T3 cells', '%', 51),
  ('CCN1CCN(c2ccc(Nc3cc(N(C)C(=O)Nc4c(Cl)c(OC)cc(OC)c4Cl)ncn3)cc2)CC1', 'FGFR3-TACC3_v3 expression/NIH3T3 cells', '%', 87),
  ('COc1cc(OC)c(F)c(COc2cnc(Nc3ccc(N4CCN(C)CC4)cc3)nc2)c1F', 'FGFR3-TACC3_v3 expression/NIH3T3 cells', '%', 89),
  ('COc1cc(OC)c(F)c(COc2cnc(Nc3cc(CN4CCN(C)CC4)n(C)n3)nc2)c1F', 'FGFR3-TACC3_v3 expression/NIH3T3 cells', '%', 81);
